# test-protocol: Determination of half-lives of polypeptides (plasma, LC-MS)
# condition-details: C57 BL/6, mouse, plasma, iv
Numbered stars: 1 amine (or outer) side, 2 acyl side, 3 side chain; on linkers, the order of the positions; unused ones are H or OH. Bridge positions count the residues as written; N and C are the ends. Peptide text beside a SMILES is read from it. * marks the point of attachment. Fumaroyl = O=C(O)/C=C/C(=O)*; Suc = O=C(CCC(=O)[*:2])[*:1]
The reader will find reported half-life values listed item by item below.
readout-kind: half-life (min)

[
  {
    "compound": "CC[C@H](C)[C@H](NC(=O)[C@H](CC(=O)O)NC(=O)[C@H](CCCCN)NC(=O)[C@H](Cc1c[nH]cn1)NC(=O)[C@H](C)NC(=O)[C@H](Cc1ccccc1)NC(=O)[C@H](Cc1ccc(O)cc1)NC(=O)[C@@H](NC(=O)[C@H](C)NC(=O)[C@H](CCC(=O)O)NC(=O)[C@H](CCC(=O)O)NC(=O)[C@H](CC(=O)O)NC(=O)/C=C/C(=O)O)C(C)C)C(=O)N[C@H](C(=O)N[C@@H](Cc1c[nH]c2ccccc12)C(=O)O)[C@@H](C)CC [F-BX-5] (Fumaroyl-DEEAVYFAHKDIIW-OH)",
    "inequality-symbol": "<",
    "endpoint-value": 3
  },
  {
    "compound": "CC[C@H](C)[C@H](NC(=O)[C@H](CC(=O)O)NC(=O)[C@H](CC(C)C)NC(=O)[C@H](Cc1c[nH]cn1)NC(=O)[C@H](C)NC(=O)[C@H](Cc1ccccc1)NC(=O)[C@H](Cc1ccc(O)cc1)NC(=O)[C@@H]1CSSC[C@H](NC(=O)[C@H](CCC(=O)O)NC(=O)[C@H](CC(=O)O)NC(=O)CCC(=O)O)C(=O)N[C@@H](CCC(=O)O)C(=O)N[C@@H](CCC(=O)O)C(=O)N1)C(=O)N[C@H](C(=O)N[C@@H](Cc1c[nH]c2ccccc12)C(=O)O)[C@@H](C)CC [BX-56] (Suc-DECEECYFAHLDIIW-OH; disulfide 3-6)",
    "inequality-symbol": "=",
    "endpoint-value": 8.9
  },
  {
    "compound": "CC[C@H](C)[C@H](NC(=O)[C@H](CC(=O)O)NC(=O)[C@H](CC(C)C)NC(=O)[C@H](Cc1c[nH]cn1)NC(=O)[C@H](C)NC(=O)[C@H](Cc1ccccc1)NC(=O)[C@H](Cc1ccc(O)cc1)NC(=O)[C@@H]1CCCCNC(=O)CC[C@H](NC(=O)[C@H](CC(=O)O)NC(=O)CCC(=O)O)C(=O)N[C@@H](CCC(=O)O)C(=O)N[C@@H](C)C(=O)N1)C(=O)N[C@H](C(=O)N[C@@H](Cc1c[nH]c2ccccc12)C(=O)O)[C@@H](C)CC [BX-48] (Suc-DEEAKYFAHLDIIW-OH; lactam 2-5)",
    "inequality-symbol": "=",
    "endpoint-value": 3.9
  },
  {
    "compound": "CC[C@H](C)[C@H](NC(=O)[C@H](CC(=O)O)NC(=O)[C@H](CC(C)C)NC(=O)[C@H](Cc1c[nH]cn1)NC(=O)[C@H](C)NC(=O)[C@H](Cc1ccccc1)NC(=O)[C@H](Cc1ccc(O)cc1)NC(=O)[C@@H](NC(=O)[C@H](C)NC(=O)[C@H](CCC(=O)O)NC(=O)[C@H](CCC(=O)O)NC(=O)[C@H](CC(=O)O)NC(=O)CCC(=O)O)C(C)C)C(=O)N[C@H](C(=O)N[C@@H](Cc1c[nH]c2ccccc12)C(=O)O)[C@@H](C)CC [IRL1620, reference compound] (Suc-DEEAVYFAHLDIIW-OH)",
    "inequality-symbol": "<",
    "endpoint-value": 2.6
  },
  {
    "compound": "CC[C@H](C)[C@H](NC(=O)[C@@H](NC(=O)[C@H](CC(=O)O)NC(=O)[C@H](CC(C)C)NC(=O)[C@H](Cc1c[nH]cn1)NC(=O)[C@H](C)NC(=O)[C@H](Cc1ccccc1)NC(=O)[C@H](Cc1ccc(O)cc1)NC(=O)[C@@H]1CCCCNC(=O)CC[C@H](NC(=O)[C@H](CC(=O)O)NC(=O)CCC(=O)O)C(=O)N[C@@H](CCC(=O)O)C(=O)N[C@@H](C)C(=O)N1)C(C)C)C(=O)N[C@@H](Cc1c[nH]c2ccccc12)C(=O)O [BX-76] (Suc-DEEAKYFAHLDVIW-OH; lactam 2-5)",
    "inequality-symbol": "=",
    "endpoint-value": 3.6
  }
]
